Ref: ChEMBL document CHEMBL3507680

Experiment: Human HepG2 cell viability assay in 384 well format
Assay type: toxicity, cell-based
Parameters: dose 125 nL, time 70.5 hour; concentration not given beside the values
Details: HepG2 cells, read-out: Inhibition
REPORTED_ENDPOINT: cytotoxicity at 70.5 h (%)
Numeric answer only, unit % assumed.

Request: Endpoint output: cytotoxicity at 70.5 h of CC(=O)N1CCC(CSCc2ccco2)CC1 . Value?
Response: 12.9

Request: Please look up its cytotoxicity at 70.5 h: Cc1cc(C(F)F)nn1C(C)C(=O)NCc1nccn1C (stereo not drawn)
Response: -0.123

Request: I am curious: what cytotoxicity at 70.5 h value has been reported for Cc1csc(CNc2ccc(-c3nc(C4CC4)no3)cn2)n1 ?
Response: -5.44

---

Test: Human HepG2 cell viability assay in 384 well format
Format: toxicity, cell-based
Design: dose 125 nL, time 70.5 hour; concentration not given beside the values
Settings: HepG2 cells, read-out: Inhibition
Give measured cytotoxicity at 70.5 h for each item. Keep answers brief.
Value expressed in %; do not type the unit.

Request: Data request, read-out cytotoxicity at 70.5 h, for Fc1ccc(CNCCn2cccn2)cc1F
Response: 16.8

Request: So what's the measured cytotoxicity at 70.5 h for this one? Cc1cnc(C(=O)N(C)Cc2nc(-c3ccccn3)no2)cn1
Response: 1.35

Request: May I ask what cytotoxicity at 70.5 h has been recorded for Cc1nn(C)c(C)c1C1CCCN1CCOc1cccc(C#N)c1 (configuration not stated) ?
Response: -3.95

Request: Param item = CN1CCC(N(C)C(=O)Nc2ccc(Cl)cc2)CC1 ; retrieve measured cytotoxicity at 70.5 h.
Response: -2.16

Request: Need cytotoxicity at 70.5 h, item COc1ccc(CNCCc2ccn(-c3ccccc3)n2)cc1O
Response: -8.7

Request: Look up cytotoxicity at 70.5 h for this compound: O=C(c1ccnnc1)N1CC[C@@H](O)[C@@H]1Cc1ccccc1
Response: -9.3

Request: Would you kindly share the measured cytotoxicity at 70.5 h for CC(c1ncc(C(C)(C)C)o1)N1CCN(Cc2ccc(Cl)s2)CC1 (configuration not stated) ?
Response: 16.2

Request: Suppose we examine the compound CN(Cc1ccc(Cl)cc1)C(=O)Nc1cnn(CC(N)=O)c1 ; what cytotoxicity at 70.5 h value has been reported?
Response: 8.79

Request: Would you mind telling me what cytotoxicity at 70.5 h value was observed for Cc1ccc(=O)n(CC2(O)CCN(Cc3c(F)cccc3F)CC2)n1 ?
Response: 0.803

Request: // returns reported cytotoxicity at 70.5 h for input CCN1CCN(CC(=O)N2CCOC(Cc3ccc(OC)cc3)C2)CC1 (configuration not stated)
Response: -16

Request: Looking for the measured cytotoxicity at 70.5 h of CC(=O)N(Cc1noc(C2CC2)n1)C1CCN(Cc2cccnc2)C1 (configuration not stated) , can you help?
Response: -9.51

Request: Need cytotoxicity at 70.5 h, item O=C(CCc1ccco1)N1CCc2[nH]nc(COc3ccccc3)c2C1
Response: 51.5

Request: Which cytotoxicity at 70.5 h is listed for CC(=O)N[C@@H]1CN(C(=O)CC2CCOCC2)C[C@H]1O ?
Response: -1.61

Request: Returns the measured cytotoxicity at 70.5 h for the input compound. Input: O=C(CC1CC2(CCNCC2)c2ccccc21)NCC1CC1 (configuration not stated)
Response: 11.3

Request: Name the recorded cytotoxicity at 70.5 h for CN(C)C[C@]12COC[C@H]1CN(C(=O)CCc1ccccc1)C2 .
Response: -11.8

Request: So what does the record say about cytotoxicity at 70.5 h for c1ccc(-c2nc(CCNc3nnc(C4CCC4)o3)no2)cc1 ?
Response: 15.9

Request: May I ask what cytotoxicity at 70.5 h has been recorded for O=C(c1cccnc1)N1CCOC2(COCCN(c3cncnc3)C2)C1 (configuration not stated) ?
Response: -9.01

Request: Requested field: cytotoxicity at 70.5 h. Item: Cc1cc(Cn2cc(C#N)c(=O)c3ccccc32)on1
Response: 8.12

Request: Can you share its cytotoxicity at 70.5 h? I mean this compound: CC(c1cc(O)nc(NC2CCCC2)n1)n1ncc2ccccc2c1=O (configuration not stated)
Response: -8.36

Request: Quick one: cytotoxicity at 70.5 h for Cc1cc(C(=O)NC2CCN(CC(N)=O)CC2)nn1C(C)(C)C ?
Response: -18.9

Request: Entry CN1C[C@@H](C(=O)NC(C)(C)C)[C@@]2(COc3ccc(F)cc3C2=O)C1 has what cytotoxicity at 70.5 h?
Response: -1.75

Request: Need cytotoxicity at 70.5 h of CCc1ncc2c(n1)CN(Cc1nc(-c3cccs3)no1)CC2 , thanks.
Response: -13

Request: Which cytotoxicity at 70.5 h reading was recorded for the compound CCc1nc(Cn2cncc(Br)c2=O)no1 ?
Response: -8.84

Request: Which cytotoxicity at 70.5 h value belongs to CCN1CCCC1CN(Cc1cc[nH]n1)CC1CCN(CCOC)CC1 (configuration not stated) ?
Response: 6.24

Request: # get_value(readout='cytotoxicity at 70.5 h', item= NCc1n[nH]c(-c2cccc(F)c2)n1 )
Response: 32.2

Request: Need cytotoxicity at 70.5 h of Cn1ccc(NC(=O)CN2CCC(Oc3cnccn3)CC2)n1 , thanks.
Response: 1.93

Request: Value lookup for cytotoxicity at 70.5 h; key = CN(Cc1cnn(C)c1)C1CCN(c2cccc(-c3cscn3)c2)CC1
Response: -2.02

Request: I have this compound here, Cn1c(CN2CCC(OCc3cccnc3)CC2)cc2ccccc21 , and I need its recorded cytotoxicity at 70.5 h.
Response: 1.71

Request: Consider the compound COc1ccc(CCC(=O)NCCN2CCC(c3cccs3)CC2)cc1 and give its measured cytotoxicity at 70.5 h.
Response: -1.5

Request: Bench note: what cytotoxicity at 70.5 h did c1cncc(COCc2cncc3c2CCN(Cc2ccoc2)C3)c1 show?
Response: -9.45

Request: Quick one: cytotoxicity at 70.5 h of Cc1ccc(CC(=O)N2CC[C@@H]3NC(=O)CC[C@@H]32)cc1 ?
Response: 4.9

Request: Endpoint output: cytotoxicity at 70.5 h of O=C(CSCC1CC1)N1C[C@@H]2CC[C@H](C1)N(Cc1ccccn1)C2=O . Value?
Response: -8.12

Request: // lookup cytotoxicity at 70.5 h for O=C(OCc1cc(=O)n2cc(Br)ccc2n1)c1ccc2c(c1)OCO2
Response: -5.88

Request: # get_value(readout='cytotoxicity at 70.5 h', item= CC1COCCN1C(=O)NCCCn1ccnc1 (configuration not stated) )
Response: -2.86

Request: Please report the recorded cytotoxicity at 70.5 h for c1csc(CN2Cc3nc(CN4CCCC4)oc3C2)c1 .
Response: -1.36

Request: Find the recorded cytotoxicity at 70.5 h belonging to O=C(Cn1cc(Cl)cn1)N1CCCC(c2cc3ccccc3cn2)C1 (configuration not stated) and report it.
Response: 23.4

Request: Need cytotoxicity at 70.5 h, item CS(=O)(=O)CCN(Cc1cccc(O)c1)C1CCC(O)CC1 (configuration not stated)
Response: -4.64

---

Experiment: Human HepG2 cell viability assay in 384 well format
Format: toxicity, cell-based
Set-up: dose 125 nL, time 70.5 hour; concentration not given beside the values
Conditions: HepG2 cells, read-out: Inhibition
REPORTED_ENDPOINT: cytotoxicity at 70.5 h (%)
Note: unit % is implicit; provide only the numeric part.

Request: Need cytotoxicity at 70.5 h of CS(=O)(=O)N1CCCC1Cn1cccn1 (stereo not drawn) , thanks.
Response: 2.44

Request: Entry under review: O=C(NC1CC1)C1CCCN(c2cc(-n3cncn3)ncn2)C1 (stereo not drawn) . Reported cytotoxicity at 70.5 h?
Response: 13.5

Request: Entry under review: N#Cc1cccc(OCCCN2CCN(C(=O)c3ccoc3)CC2)c1 . Reported cytotoxicity at 70.5 h?
Response: -10

Request: What value of cytotoxicity at 70.5 h has been reported for the following compound? COc1ccc(C2(C(=O)N3C[C@@H](C(=O)O)[C@H](C(C)C)C3)CC2)cc1
Response: -6.04

Request: Would you kindly share the measured cytotoxicity at 70.5 h for COCCNC(=O)C1(c2ccccc2C)CCOCC1 ?
Response: 17.1

Request: Which cytotoxicity at 70.5 h value belongs to CC(C)N1CCC2(CC1)C(=O)N(CCN(C)C)c1ccccc12 ?
Response: -6.47

Request: Could you tell me which cytotoxicity at 70.5 h is on file for Cc1ccccc1C(=O)N1C[C@@H](O)[C@H](N2CCOCC2)C1 ?
Response: -3.66

Request: Look at this compound and give its reported cytotoxicity at 70.5 h. c1coc(CN2CCCn3c(nnc3Cn3cccn3)C2)c1
Response: 3.11

Request: I would be grateful if you could share the reported cytotoxicity at 70.5 h for O=C(NC1CC1)N1CCc2ccc(=O)n(CCN3CCCC3)c2CC1 .
Response: 0.272

Request: Entry NCCC(Cc1ccccc1)c1ccco1 (stereo not drawn) has what cytotoxicity at 70.5 h?
Response: 35

Request: Which cytotoxicity at 70.5 h reading was recorded for the compound Cn1ccnc1CN(CCO)C(=O)c1cc2ccccc2o1 ?
Response: 9.95

Request: # input compound: Cn1cc(C2COC3(CCN(C(=O)Cn4cccn4)CC3)C2)cn1 (stereo not drawn) ; wanted: its cytotoxicity at 70.5 h
Response: -2.75

Request: # query: cytotoxicity at 70.5 h of entry O=C(NCCCO)Nc1cccc(Cl)c1F
Response: -8.31
